# assay_target: Bcl-2-like protein 10 (Homo sapiens)
# assay_protocol: Bfl1 and BclB peptide interaction inhibitors, dose response, biochemical, powder compounds, wildtype and mutant Bfl1, panel (AID 504598)
# settings: Bfl1/BclB peptide binding displacement assay, BclB wildtype
The source made the active and inactive calls. The rule behind the calls is not given here.
Classes used: t = active, f = inactive

> print(dat)
                               smiles.input                          assay.target  cat
1  CC(=O)c1ccc(NC(=O)c2ccc3nc(-c4ccco4)c(-c4ccco4)nc3c2)cc1  Bcl-2-like protein 10 (Homo sapiens)    f
2  Cc1ccc(C=NNC(=O)CSc2nnc(-c3ccc(Cl)cc3)n2-c2ccccc2)o1  Bcl-2-like protein 10 (Homo sapiens)    t
3  O=C(Nc1ccc2nc(-c3ccco3)c(-c3ccco3)nc2c1)N1CCCCCC1  Bcl-2-like protein 10 (Homo sapiens)    t
4                       Cc1cc(N)ccc1N1CCCC1  Bcl-2-like protein 10 (Homo sapiens)    f
